Molecular target: T1, human CD24 (human, UniProt P25063 27-59, heavily glycosylated, GPI-anchored (as described in the background))
T1 construct: whole, on cells; Target of all cell-based FACS assays; also called hCD24; Cluster of differentiation 24
T1 chain (looked up): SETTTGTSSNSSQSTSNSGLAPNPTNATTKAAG
Test: FACS, HT-29 cells
Below is a list of entries, each paired with its recorded EC50 value.
Answer in nM, number only, no unit symbol.

| BINDER | EC50 [nM] |
| --- | --- |
| 73H5-1G2 (antibody, V domains shown, mouse monoclonal antibody) VH: QVQLKQSGPGLVQPSQSLSITCTVSGFSLTNYGVHWIRQSPGKGLEWLGVIWRGGSTDYNAAFMSRLSITKDNSKSQVFFQMNSLQAADTAIYYCANNYGYDCFAYWGQGTLVTVSA VL: DVQITQSPSYLAASPGETITINCRASKSIIKYLAWYQEKPGKTNKLLIYSGSTLQSGIPSRFSGSGSGTDFTLTITSLEPEDFAMYYCQQHNEYPLTFGAGTRLELK | 40 |
| 81A1F8 (antibody, V domains shown, mouse monoclonal antibody) VH: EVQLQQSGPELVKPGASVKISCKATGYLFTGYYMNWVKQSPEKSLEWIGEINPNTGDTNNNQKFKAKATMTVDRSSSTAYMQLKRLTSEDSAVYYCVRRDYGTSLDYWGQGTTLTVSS VL: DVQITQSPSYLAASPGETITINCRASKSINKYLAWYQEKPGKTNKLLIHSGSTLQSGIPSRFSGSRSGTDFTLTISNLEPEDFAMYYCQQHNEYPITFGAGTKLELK | 2.93 |
| 56A7E3 (antibody, V domains shown, mouse monoclonal antibody) VH: EVQLQQSGPELVKPGASVKIPCKASGYTFTAYNMDWVKQSHGMSLEWIGDINPINGGTIYNQNFEGKATLTVDKSSSTAYLELRSLTSEDTAVYYCARRGSYYYGSSHYALDFWGQGTSVSVSS VL: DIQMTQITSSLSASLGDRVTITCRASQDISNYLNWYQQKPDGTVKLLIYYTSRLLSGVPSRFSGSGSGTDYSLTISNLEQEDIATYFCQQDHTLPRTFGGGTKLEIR | 18.1 |
| SN3 (antibody, V domains shown) VH: QVQLKESGPGLVAPSQSLSITCTVSGFSLTSYGVHWVRQPPGKGLEWLGVIWAGGSTNYNSALMSRLSISKDNSKSQVFLKMNSLQTDDTAMYYCAVYYGYLFFAYWGQGTLVTVSA VL: ENVLTQSPAIMSASPGEKVTMTCSASSSVSYMHWYQQKSTTSPKLWIYDTSKLASGVPGRFSGSGSGNSYSLTISSMEAEDVATYYCFQGSGYPLTFGGGTKLEIK | 6.61 |
| 58F10-1F6 (antibody, V domains shown, mouse monoclonal antibody) VH: EVQLRQSGPELVKPGAAVKISCKASGYSFTGYHMNWVKQSPEKSLEWIGEINPITSGITYNQIFKAKATLTVDKSSSTAYLQLKSLTSEDSAVYYCTRRDYGTSLDYWGQGTTLTVSS VL: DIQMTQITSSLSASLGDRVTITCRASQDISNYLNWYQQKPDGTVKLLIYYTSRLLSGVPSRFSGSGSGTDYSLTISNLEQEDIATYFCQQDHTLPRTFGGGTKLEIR | 10.8 |

Need EC50 of 71A4F12 (antibody, V domains shown, mouse monoclonal antibody) VH: EVQLQQSGPELVKPGASVKIPCKASGYTFTAYNMDWVKQSHGMSLEWIGDINPNNGDTVYNQNFKGKATLTVDKSSSTAYMELRSLTSEDTAVYYCARRGSYYYGSSHYALDFWGQGTSVSVSS VL: DIQMTQITSSLSASLGNRVTISCRASQDIRNYLNWYQQKPDGTVKLLIYYTSRLLSGVPSRFSGSGSGTDYSLTISNLEQEDIATYFCQQDNSLPRTFGGGTRLEIR , thanks.
5.46

Need EC50 of 110D4G4 (antibody, V domains shown, mouse monoclonal antibody; also called mAb-110D4G4) VH: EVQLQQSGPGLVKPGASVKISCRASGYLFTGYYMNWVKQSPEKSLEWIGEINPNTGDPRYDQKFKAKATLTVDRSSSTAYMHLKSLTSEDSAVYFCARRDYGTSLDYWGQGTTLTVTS VL: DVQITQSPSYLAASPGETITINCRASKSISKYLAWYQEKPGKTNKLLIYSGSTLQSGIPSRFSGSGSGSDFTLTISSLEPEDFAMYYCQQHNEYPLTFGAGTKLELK , thanks.
2.92

Need EC50 of 100F2E3 (antibody, V domains shown, mouse monoclonal antibody) VH: QVQLQQPGAELVRPGSSVKLSCKTSDYTFTSYWMDWVKQRPGQGLEWIGNIYPSDSKTHSNQKFRDKATLTVDKSSSTAYMQLNSLTSEDSAVYYCARRGGYYGYAMDYWGQGTSVTVSS VL: DIVMTQSPSSLSVSAGEKVTMSCKSSQSLLNSGNQDNYLAWYQQKPGQPPKLLIYGASIRESGVPDRFTGSGSGTDFTLTISSVQAEDLAVYYCQNDHSYPYTFGGGTKLEIK , thanks.
9.55
